Each recorded value in this set is attributed to paper PMC9050923.

# GI50 per entry
Test system: MCF-7
Experiment: MTT assay, MCF-7 breast cancer cells
Type: cell-based
Conditions: Homo sapiens, MCF7, 72 h, mean of three independent experiments ± SEM

>  <compound>
COc1ccc(-c2nc(N)nc(Nc3cccc(Cl)c3)n2)cc1 [Compound 74]

>  <system-tested>
MCF-7

>  <GI50>
18.3 µM

$$$$
>  <compound>
Cc1ccc(Nc2nc(N)nc(-c3cccc(F)c3)n2)cc1 [Compound 17]

>  <system-tested>
MCF-7

>  <GI50>
> 20 µM

$$$$
>  <compound>
Cc1ccc(-c2nc(N)nc(Nc3ccc(F)cc3)n2)cc1 [Compound 62]

>  <system-tested>
MCF-7

>  <GI50>
20.2 µM

$$$$
